assay: method code SF, from DOI: 10.1016/j.ejps.2012.10.019, PMID: 23131797; conditions: pH 10.5
Categories are assigned from the measured logD using these intervals: low value: < 4; medium value: ≥ 4 and < 5; high value: ≥ 5

Some entries whose results are on file:
compound	qualitative label
COCCCNC(=O)c1cc(Br)c(C)c(C)c1C	low value
CCOC(=O)N1CCN(c2nc(C(F)(F)F)nc3c(C)cc(C)cc23)CC1	high value

Field: next compound
GET /class?item= CC(C)(C)c1cc(Cc2ccccc2)n[nH]1
medium value

* * *

In this section we review reported logD values for a set of compounds.
experiment: method code SF, from DOI: 10.1016/j.ejps.2012.10.019, PMID: 23131797; settings: pH 8.0
Please respond with just the number, no unit label.

smi	logD
CSc1ncccc1C(=O)OCC(=O)Nc1c(C)n(C)n(-c2ccccc2)c1=O	3.63
Cc1cc(SCC(=O)NCc2ccc3c(c2)OCO3)nc2ccccc12	4.15

Continue with the next compound.
Requested field: logD. Item: CCOC(=O)c1nc(N)sc1C
1.74

* * *

details: pH 5.0
In this section we review reported logD values for a set of compounds.
Please respond with just the number, no unit label.

Worked cases, answers included:
smi	logD
O=C(c1nn2c(c1Br)N[C@H](c1cccs1)C[C@H]2C(F)(F)F)N1CCCC1	4.47
COc1cccc(NC(=O)[C@H](OC(=O)C2=COCCO2)c2ccccc2)c1	3.81
C[C@@H]1C=CC[C@@H]2C(=O)N(c3cccc(C(=O)OCC(=O)c4ccc(Br)cc4)c3)C(=O)[C@H]12	5.29
CC1(C)CC(=O)C2=C(C1)OC(N)=C(C#N)[C@H]2c1ccc(C(F)(F)F)cc1	4.55
CCCCOc1ccc(/C=C/C(=O)NC(C)C)cc1	4.45
CCCS(=O)(=O)c1c(S(=O)(=O)CCC)c2c3ccccc3ccn2c1C(=O)c1ccccc1	4.48

Requested field: logD. Item: COc1ccccc1NC(=O)C1=C(C)NC(SCC(=O)Nc2ccc(C)c(Cl)c2)=C(C#N)[C@@H]1c1ccco1
6.27

Then what about the compound CC(C)CN1C(=O)/C(=C/[C@@H]2CC=CCC2)SC1=S ?
6.66

Then what about the compound CC(=O)Nc1ccc(/N=C/c2c(O)oc3ccccc3c2=O)cc1 ?
3.64

Then what about the compound Cc1c(NC(=O)[C@@H]2CCCCN2S(=O)(=O)c2ccc(Cl)cc2)c(=O)n(-c2ccccc2)n1C ?
3.89

Then what about the compound COc1ccccc1[C@@H]1CC(=O)Nc2cc(C)c(C)cc21 ?
4.17

Then what about the compound Cc1ccc(-c2nc3n(n2)C(=O)C[C@H](c2cccc([N+](=O)[O-])c2)S3)cc1 ?
4.49

Then what about the compound Cc1c(N[C@@H](NC(=O)c2cccc([N+](=O)[O-])c2)C(Cl)(Cl)Cl)c(=O)n(-c2ccccc2)n1C ?
3.99

Then what about the compound COc1ccc(C(=O)OCC(=O)c2cc(C)n(C[C@@H]3CCCO3)c2C)c(OC)c1 ?
4.18

Then what about the compound Cc1noc(C)c1C(=O)O[C@@H](C)C(=O)Nc1ccc2c(c1)OCCO2 ?
2.78

Then what about the compound CC1(C)OC[C@H](COc2c(F)c(N3CCOCC3)nc(F)c2Cl)O1 ?
4.07

* * *

assay: method code SF, from DOI: 10.1016/j.ejps.2012.10.019, PMID: 23131797; conditions: pH 7.3
measured endpoint: logD
Please respond with just the number, no unit label.

Worked cases, answers included:
compound	measured endpoint	numeric value
COc1cc(OC)c(C2C3=C(CCCC3=O)Nc3ncnn32)cc1OC (stereo not given)	logD	2.19
COc1cccc(-c2ccc3c(N)c(C(=O)Nc4ccc(F)c(F)c4)sc3n2)c1	logD	5.86
COc1ccc(C2CC(=O)C3=C(C2)Nc2ccccc2N(C(=O)C(F)(F)F)C3c2cc(OC)c(OC)c(OC)c2)cc1 (stereo not given)	logD	4.87
O=C(Nc1cc2c(n(CCNc3ncc(C(F)(F)F)cc3Cl)c1=O)CCCC2=O)c1ccc(Cl)cc1	logD	5.83
COc1cccc(NC(=O)CSc2nnc3ccccn23)c1	logD	2.45
O=C(c1ccccc1)c1ccc(N2CCN(C(=O)c3c(F)cccc3F)CC2)c(F)c1	logD	5.14
Cc1cccc(NC(=O)CSc2ccccn2)c1C	logD	3.19
CCOC(=O)C1CCN(S(=O)(=O)c2nc3nc(C)cc(C)n3n2)CC1	logD	2.71
COC(=O)c1cc(OC)c(OC)cc1NC(=O)CSc1nncn1C	logD	2.78

Requested field: logD. Item: CCn1c(SCc2nc3c4cnn(C)c4ncn3n2)nnc1-c1cc(C(F)(F)F)n(C)n1
3.85

Origin of measurements: the SangsterLogP compilation
